cytotoxicity at 70.5 h overview
- procedure details: Human HepG2 cell viability assay in 384 well format
- Type: toxicity, cell-based
- Set-up: dose 125 nL, time 70.5 hour; concentration not given beside the values
- protocol conditions: HepG2 cells, read-out: Inhibition
reported property: cytotoxicity at 70.5 h

c1ccc(CNCC2Cn3nnc(-c4ccncc4)c3CO2)nc1 (stereo unspecified) : -4.04%
Cc1ccc(NC(=O)N(C)Cc2cnn(C)c2)c(C)c1 : -10.1%
Cc1noc(CS(=O)(=O)CC(=O)NC(C)c2ccccc2)n1 (stereo unspecified) : -12.5%
c1ccc(NCc2ccsc2)c(Cn2cncn2)c1 : -15.1%
OCCN(Cc1nc(-c2ccc3c(c2)OCO3)no1)Cc1cccs1 : -16.8%
COC(=O)c1cccc(S(=O)(=O)NC(=O)c2ccccc2F)c1 : -5.66%
NC(=O)c1nc2c(s1)CCN(C(=O)Nc1cccc(Cl)c1)CC2 : 7.06%
CN(Cc1n[nH]c2c1CCCC2)c1nc2c(c(=O)[nH]1)CCNCC2 : -4.95%
COc1ccccc1OCCCn1c(C)c(C)oc1=O : 2.36%
c1cc(CN2CCOCC3(CCN(C4CCOCC4)C3)C2)ccn1 (stereo unspecified) : 6.88%
O=C(NCC1CC1)[C@@H]1CCO[C@@H]2CCN(Cc3ccc(F)cc3)C[C@H]21 : -4.34%
